# studySystem: T1, Human Tau 2N4R, wild type, recombinant full length (human, UniProt P10636 2-758)
# T1 construct: Full length 2N4R isoform; monomer in SPR and ELISA; heparin-induced aggregates or seeds in the functional assays; also called Tau441; Tau-441
# T1 sequence (P10636 other isoform, or with tags, fused parts or gaps limits assumed): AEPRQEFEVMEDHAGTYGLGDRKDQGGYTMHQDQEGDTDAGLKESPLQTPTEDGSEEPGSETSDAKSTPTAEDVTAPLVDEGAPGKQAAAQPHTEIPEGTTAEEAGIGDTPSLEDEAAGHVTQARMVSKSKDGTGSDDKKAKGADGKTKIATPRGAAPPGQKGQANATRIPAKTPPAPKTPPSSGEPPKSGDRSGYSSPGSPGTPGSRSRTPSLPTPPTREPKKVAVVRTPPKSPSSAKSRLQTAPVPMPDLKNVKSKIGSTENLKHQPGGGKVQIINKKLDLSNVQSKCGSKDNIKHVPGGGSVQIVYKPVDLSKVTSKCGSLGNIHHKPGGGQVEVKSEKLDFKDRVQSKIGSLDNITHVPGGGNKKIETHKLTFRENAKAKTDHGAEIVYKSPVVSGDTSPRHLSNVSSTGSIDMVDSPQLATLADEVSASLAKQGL
# protocolDetails: SPR BIAcore, mAb captured by anti-human IgG, Tau flowed, 1:1 Langmuir
quantityKind: Kd (pM)
// units = pM; emit number, no label

Take a look at these entries with their results.
Lab note: 7G6-HCzu13-LCzu12 (antibody, human IgG1, kappa, V domains shown, humanized, human IgG1 kappa) VH: EVQLLESGGGLVQPGGSLRLSCAASGYTFTTYWITWVRQAPGKGLEWVGDIYPGSSICNYADSVKGRFTISVDNSKSTAYLQMNSLRAEDTAVYYCAREDGYDAWFAYWGQGTLVTVSS VL: DVQMTQSPSSLSASVGDRVTITCRSSQSILHSNGNTYLEWYQQKPGKAPKLLICKVSNRFSGVPSRFSGSGSGTDFTLTISSLQPEDFATYYCFQGSHVPFTFGQGTKLEIKR gave Kd of 168

Lab note: 7G6-HCzu15-LCzu12 (antibody, human IgG1, kappa, V domains shown, humanized, human IgG1 kappa) VH: EVQLLESGGGLVQPGGSLRLSCAASGYTFTTYWITWVRQAPGKGLEWVGDIYPGSSICNYNEKFKSRFTISVDNSKNTAYLQMNSLRAEDTAVYYCAREDGYDAWFAYWGQGTLVTVSS VL: DVQMTQSPSSLSASVGDRVTITCRSSQSILHSNGNTYLEWYQQKPGKAPKLLICKVSNRFSGVPSRFSGSGSGTDFTLTISSLQPEDFATYYCFQGSHVPFTFGQGTKLEIKR gave Kd of 138

Shift focus to the following entry.
Lab note: 7G6-HCzu19-LCzu12 (antibody, human IgG1, kappa, V domains shown, humanized, human IgG1 kappa) VH: EVQLLESGGGLVQPGGSLRLSCAASGYTFTTYWITWVRQAPGKGLEWVSDIYPGSSICNYADKFKGRFTISRDNSKNTLYLQMNSLRAEDTAVYYCAREDGYDAWFAYWGQGTLVTVSS VL: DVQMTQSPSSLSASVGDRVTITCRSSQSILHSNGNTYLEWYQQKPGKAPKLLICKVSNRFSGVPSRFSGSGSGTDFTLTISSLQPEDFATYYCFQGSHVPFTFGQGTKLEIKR gave Kd of 121
